- Experimental system: Calpain (Calpain-1) (Homo sapiens)
- Sequence (P07384 1-714): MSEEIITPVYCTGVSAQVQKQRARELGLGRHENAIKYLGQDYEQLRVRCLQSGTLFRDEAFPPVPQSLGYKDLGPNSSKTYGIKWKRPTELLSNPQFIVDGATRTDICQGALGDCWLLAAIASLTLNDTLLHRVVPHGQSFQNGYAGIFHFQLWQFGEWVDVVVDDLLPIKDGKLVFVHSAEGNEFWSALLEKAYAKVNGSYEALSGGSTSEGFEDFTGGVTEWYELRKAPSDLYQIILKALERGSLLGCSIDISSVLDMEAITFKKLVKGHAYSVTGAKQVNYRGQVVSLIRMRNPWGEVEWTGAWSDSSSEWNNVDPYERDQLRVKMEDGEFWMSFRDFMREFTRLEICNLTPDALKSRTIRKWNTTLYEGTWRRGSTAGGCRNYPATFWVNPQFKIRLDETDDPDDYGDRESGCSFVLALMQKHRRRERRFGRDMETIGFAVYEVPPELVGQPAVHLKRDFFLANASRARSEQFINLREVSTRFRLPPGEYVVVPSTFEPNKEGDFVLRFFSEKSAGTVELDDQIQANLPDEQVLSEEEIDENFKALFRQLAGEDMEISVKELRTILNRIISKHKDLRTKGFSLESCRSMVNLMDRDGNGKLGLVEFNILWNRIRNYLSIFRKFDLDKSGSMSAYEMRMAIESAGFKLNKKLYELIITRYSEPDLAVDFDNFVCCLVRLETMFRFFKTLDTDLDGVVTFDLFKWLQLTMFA
- Sequence (P04632 1-268 partner): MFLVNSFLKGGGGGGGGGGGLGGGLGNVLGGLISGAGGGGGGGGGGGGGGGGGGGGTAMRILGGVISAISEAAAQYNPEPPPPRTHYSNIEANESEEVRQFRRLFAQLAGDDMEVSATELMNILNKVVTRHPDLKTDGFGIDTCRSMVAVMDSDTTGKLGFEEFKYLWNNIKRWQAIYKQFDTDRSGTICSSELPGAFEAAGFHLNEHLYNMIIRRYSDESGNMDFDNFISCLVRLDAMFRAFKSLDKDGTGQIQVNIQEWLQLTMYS
- Protocol details: in vitro fluorescence-based protease inhibition assay, calpain
- Type: biochemical
- Test settings: Table 2, cathepsin S inhibitors
Starred links: 1 amine or outer side, 2 acyl side, 3 side chain; linkers in the order of their positions; H or OH if unused. Positions of bridges follow the written chain, without caps; N, C: chain ends. Residues, ends and D or L forms follow the SMILES beside them. mXylylene = c1cc(C[*:1])cc(C[*:2])c1
Quantity measured: pKi
pKi here is simply -log10 of the concentration when that concentration is written in mol/L.

[
  {
    "Compound": "CSCC[C@@H]1NC(=O)[C@H](CC(C)C)NC(=O)[C@H](CO)NC(=O)[C@@H](NC(=O)[C@@H](NC(=O)[C@H](CCC(=O)O)NC(=O)[C@H](CCC(=O)O)NC(=O)[C@H](CO)NC(=O)[C@@H](N)Cc2c[nH]c3ccccc23)C(C)C)CSCc2cccc(c2)CSC[C@@H](C(=O)N[C@@H](CO)C(=O)O)NC1=O [compound 17] (H-WSEEVCSLMCS-OH; linker 6-10 via mXylylene; N-terminus and C-terminus assumed)",
    "pKi": 3.97
  },
  {
    "Compound": "CSCC[C@@H]1NC(=O)[C@H](CC(C)C)NC(=O)[C@H](CO)NC(=O)[C@@H](NC(=O)[C@@H](NC(=O)[C@H](Cc2c[nH]c3ccccc23)NC(=O)[C@H](CCC(=O)O)NC(=O)[C@H](Cc2c[nH]c3ccccc23)NC(=O)[C@@H](N)[C@@H](C)O)C(C)C)CSCc2cccc(c2)CSC[C@@H](C(=O)N[C@@H](CO)C(=O)O)NC1=O [compound 23] (H-TWEWVCSLMCS-OH; linker 6-10 via mXylylene; N-terminus and C-terminus assumed)",
    "pKi": 4.05
  }
]

Now look at this entry.
Determine from records and report pKi for CSCC[C@@H]1NC(=O)[C@H](CC(C)C)NC(=O)[C@H](CO)NC(=O)[C@@H](NC(=O)[C@@H](NC(=O)[C@H](Cc2c[nH]c3ccccc23)NC(=O)[C@H](CCC(=O)O)NC(=O)[C@H](Cc2c[nH]c3ccccc23)NC(=O)[C@@H](N)Cc2c[nH]c3ccccc23)C(C)C)CSCc2cccc(c2)CSC[C@@H](C(=O)N[C@@H](CO)C(=O)O)NC1=O [compound 25] (H-WWEWVCSLMCS-OH; linker 6-10 via mXylylene; N-terminus and C-terminus assumed)
4.07

Data provenance: patent US9670250B2
